experiment: physchem
Ends that are not written are not given here.
reported-endpoint: solubility (mg/mL)

[a] VPLAHSSSAFTIMDQVPFSVSVSQLRALDG [Peptide 4]
[b] LLHLAVIGALLAVGATKVPRNQDWLGVSRQL [Peptide 6]
Among a and b , which shows a numerically higher solubility result? Write down the label of the entry you select.
a

Every entry's value here was drawn from patent US9345755B2.
